Test system: K562
test_method_notes: Cytotoxicity against human K562 cells after 48 hrs by MTT assay
Type: functional, cell-based
assay_setup: K562, 48 h
quantity: pIC50
One number for each entry, as −log10 of the molar value.

{"compound": "COc1cccc2c1C(=O)c1c(O)c3c(c(O)c1C2=O)C[C@@](O)(C(=O)CO)C[C@@H]3O[C@H]1C[C@H](N)[C@H](O)[C@H](C)O1 [DOXORUBICIN]", "pIC50": 5.62}

# evaluate next
response.value for `COc1c(CC=C(C)C)cc(C(=O)/C=C/c2cccnc2)c(O)c1CC=C(C)C` (field: pIC50) = 5.58

###

Test system: MDA-MB-231
test_method_notes: Cytotoxicity against human MDA-MB-231 cells after 48 hrs by MTT assay
Format: functional, cell-based
assay_setup: MDA-MB-231, 48 h
quantity: IC50 (µM)
Give bare numbers, in µM.

The reported value for `COc1c(CC=C(C)C)cc(C(=O)/C=C/c2cccnc2)c(O)c1CC=C(C)C` in terms of IC50 is 3.14

###

System: K562
test_method_notes: Growth inhibition of human K562 cells at 5 umol/L after 48 hrs by MTT assay relative to control
Assay type: functional
Active and inactive are the calls of the source. The calls are words filed in the database; no cut-off is given here.
quantity: growth inhibition (GI)

{"molecule": "CCOc1cc(/C=C/C(=O)c2cc(CC=C(C)C)c(OC)c(CC=C(C)C)c2O)ccc1OC(=O)c1ccco1", "quantity": "growth inhibition (GI)", "result": "inactive"}
{"molecule": "COc1cc(/C=C/C(=O)c2cc(CC=C(C)C)c(OC)c(CC=C(C)C)c2O)ccc1O", "quantity": "growth inhibition (GI)", "result": "inactive"}
{"molecule": "COc1cc(/C=C/C(=O)c2cc(CC=C(C)C)c(OC)c(CC=C(C)C)c2O)ccc1OC(=O)Cc1cc2ccccc2[nH]1", "quantity": "growth inhibition (GI)", "result": "inactive"}
{"molecule": "CCOc1cc(/C=C/C(=O)c2cc(CC=C(C)C)c(OC)c(CC=C(C)C)c2O)ccc1OC(=O)c1cccs1", "quantity": "growth inhibition (GI)", "result": "inactive"}
{"molecule": "COc1cc(/C=C/C(=O)c2cc(CC=C(C)C)c(OC)c(CC=C(C)C)c2O)cc(OC)c1OC", "quantity": "growth inhibition (GI)", "result": "inactive"}

Please go through the list and note growth inhibition (GI) for each compound.
1. CCOc1cc(/C=C/C(=O)c2cc(CC=C(C)C)c(OC)c(CC=C(C)C)c2O)ccc1OC(=O)/C=C/c1ccncc1
2. CCOc1cc(/C=C/C(=O)c2cc(CC=C(C)C)c(OC)c(CC=C(C)C)c2O)ccc1OC(=O)c1ccc(Cl)s1
3. CCOc1cc(/C=C/C(=O)c2cc(CC=C(C)C)c(OC)c(CC=C(C)C)c2O)ccc1OCOC
4. COc1c(CC=C(C)C)cc(C(=O)/C=C/c2ccc(N(C)C)cc2)c(O)c1CC=C(C)C
5. COc1cc(/C=C/C(=O)c2cc(CC=C(C)C)c(OC)c(CC=C(C)C)c2O)ccc1OC(=O)c1cccnc1
6. C=CCOc1ccc(/C=C/C(=O)c2cc(CC=C(C)C)c(OC)c(CC=C(C)C)c2O)cc1OCC

inactive
inactive
inactive
inactive
inactive
inactive

###

Tested on: HEL
test_method_notes: Growth inhibition of HEL cells at 5 umol/L after 48 hrs by MTT assay relative to control
Format: functional
assay_setup: Homo sapiens, read-out: GI
quantity: inhibition of growth at 5 µM (%)
One number for each entry, in %.

Check out these entries, answers already filled in.
{"molecule": "CCOc1cc(/C=C/C(=O)c2cc(CC=C(C)C)c(OC)c(CC=C(C)C)c2O)ccc1O", "readout_number": 12.7}
{"molecule": "COc1ccc(/C=C/C(=O)c2cc(CC=C(C)C)c(OC)c(CC=C(C)C)c2O)cc1F", "readout_number": 12.3}
{"molecule": "COc1cc(/C=C/C(=O)c2cc(CC=C(C)C)c(OC)c(CC=C(C)C)c2O)ccc1OC(=O)c1cccnc1", "readout_number": 5.7}

--- query ---
For record `COc1ccc(/C=C/C(=O)c2cc(CC=C(C)C)c(OC)c(CC=C(C)C)c2O)cc1[N+](=O)[O-]` the listed inhibition of growth at 5 µM is 85.4
